Species on record: Rattus norvegicus
experiment.description: DrugMatrix - Regimen: Daily Repeat
Assay type: toxicity, organism-based, Sprague-Dawley
Set-up: regimen Daily Repeat, gender Male, age 6-8 weeks
condition.info: in vivo, po, 1500 mg/kg, 120 h, tissue Blood, route oral GAVAGE, dose level High, time 5 day, vehicle .5 % CMC
quantity.kind: MEAN CORPUSCULAR VOLUME (fL)

• CO[C@H]1/C=C/O[C@@]2(C)Oc3c(C)c(O)c4c(c3C2=O)C2=NC3(CCN(CC(C)C)CC3)NC2=C(NC(=O)/C(C)=C\C=C\[C@H](C)[C@H](O)[C@@H](C)[C@@H](O)[C@@H](C)[C@H](OC(C)=O)[C@@H]1C)C4=O [RIFABUTIN] = 61.45
• O=C(N[C@H](CO)[C@H](O)c1ccc([N+](=O)[O-])cc1)C(Cl)Cl [CHLORAMPHENICOL] = 61.9
• NC(=O)c1cnccn1 [PYRAZINAMIDE] = 60.83
• Cc1cc(=O)n(-c2ccccc2)n1C [ANTIPYRINE] = 65.7
• Cc1ccc(S(=O)(=O)NC(=O)NN2CC3CCCC3C2)cc1 (configuration not stated) [GLICLAZIDE] = 58.83
• C[C@]1(Cn2ccnn2)[C@H](C(=O)O)N2C(=O)C[C@H]2S1(=O)=O [TAZOBACTAM] = 63.5
• CNC(=C[N+](=O)[O-])NCCSCc1ccc(CN(C)C)o1 [RANITIDINE] = 63.03

The measured values listed here are drawn from ChEMBL document CHEMBL3885881.
